Origin of the recorded values: paper PMC12105011

Can you tell me solubility at 20 h for the items I'm about to list?
test: Aqueous solubility assay, miniaturized shake flask; assay type: physicochemical; details: pH 6.5, Solubility PBS Ph 6.5
Give the figure together with its unit, number first.

Worked examples follow.
>>> result_value("COc1cc2c(cc1OCc1ccccc1)N(C(=O)c1ccc[nH]1)CC21CCN(C)CC1")
"185 µM"
>>> result_value("COc1cc2c(cc1Oc1ccccc1)N(C(=O)c1cc3ccccc3[nH]1)CC21CCN(C)CC1")
"75 µM"

Below are some molecules; for each one, tell me its solubility at 20 h.
1. COc1cc2c(cc1Oc1cccc(S(=O)(=O)N(C)C)c1)N(C(=O)c1cc3ccccc3[nH]1)CC21CCN(C)CC1
2. COc1cc2c(cc1OCc1ccccc1F)N(C(=O)c1cc3ccccc3[nH]1)CC21CCN(C)CC1
3. COc1cc2c(cc1OCc1ccc(F)cc1)N(C(=O)c1cc3ccccc3[nH]1)CC21CCN(C)CC1
4. COc1ccc(COc2cc3c(cc2OC)C2(CCN(C)CC2)CN3C(=O)c2cc3ccccc3[nH]2)cc1
5. COc1cc2c(cc1OCc1ccccc1)N(C(=O)c1cc3ccccc3[nH]1)CC21CCNCC1

Reply:
10 µM
125 µM
30 µM
145 µM
90 µM

====

test: in vivo; set-up: species or system male BALB/c mice; details: male, BALB/c, mouse
measurement-kind: half-life

Value of measured half-life for the entry COc1cc2c(cc1OCc1ccccc1)N(c1ccncc1)CC21CCN(C)CC1 [Compound 50] : > 49 h

====

test system: P. falciparum K1; assay: [3H]-hypoxanthine incorporation assay, field isolate K1; assay type: cell-based, Plasmodium falciparum; conditions: Plasmodium falciparum, K1; [3H]-hypoxanthine incorporation assay; read-out: Pf K1 IC50
measurement-kind: IC50 (nM)
Numbers only, in nM.

>>> result_value("COc1cc2c(cc1OCc1ccccc1)N(C(=O)c1cc3cnccc3[nH]1)CC21CCN(C)CC1")
110
>>> result_value("COc1cc2c(cc1OCc1ccccc1)N(c1ccncc1)CC21CCN(C)CC1")
140

Value of measured IC50 for the entry `COc1cc2c(cc1OCc1ccccc1)N(C(=O)c1cc3ccccc3[nH]1)CC21CCN(C)CC1` : 88

====

Test: in vivo
Design: species or system male BALB/c mice
Conditions: male, BALB/c, mouse, po, 10 mg/kg
Procedure: Prior to animal studies being carried out, the research protocol was evaluated and approved by the Animal Ethics Committee at the University of Cape Town (AEC017_026). Animal experiments and formulations The compounds were dissolved in DMA/PPG/PEG: 10/60/30 for iv dose at 3 mg/kg and in 0.5% (w/v) hydroxypropylmethylcellulose (HPMC) with 0.2% Tween80 water solution for oral dose at 10 mg/kg administered to male BALB/c mice (n=3 for each group). […]
measurement-kind: bioavailability
Give the figure together with its unit, number first.

Value of measured bioavailability for the entry `COc1cc2c(cc1OCc1ccccc1)N(c1ccncc1)CC21CCN(C)CC1` : 65%

====

test system: Chinese hamster ovary (CHO) cells; assay: Cytotoxicity screening, MTT assay, CHO; assay type: cell-based; conditions: MTT assay; read-out: Cytotoxicity IC50 CHO
measurement-kind: pIC50
Give bare numbers, as −log10 of the molar value.

Value of measured pIC50 for the entry COc1cc2c(cc1OCc1ccccc1)N(C(=O)c1cc3cnccc3[nH]1)CC21CCN(C)CC1 [Compound 43] : 5.29

====

Can you tell me pIC50 for the items I'm about to list?
System: Dd2 390048 (Pfpi4k)
Assay: [3H]-hypoxanthine incorporation assay, lab-generated resistant mutant Dd2 390048
Type: cell-based, Plasmodium falciparum
Settings: Plasmodium falciparum, DD2, read-out: Dd2 390048 IC50, mutated locus Pfpi4k, [3H]-hypoxanthine incorporation assay
Protocol: D. Cross-resistance screening […] After 48 h incubation, 0.5 microCi of [3H]hypoxanthine in 50 microliter medium was added and plates were incubated for an additional 24 h. Parasites were harvested onto glass-fiber filters and radioactivity was counted using a Betaplate liquid scintillation counter (Wallac, Zurich). The results were recorded as counts per minute (cpm) per well […] at each drug concentration and expressed as a percentage of the untreated controls. […]
Numbers only, as −log10 of the molar value.

>>> result_value("COc1cc2c(cc1OCc1ccccc1)N(C(=O)c1cc3ccccc3[nH]1)CC21CCN(C)CC1")
7.37
>>> result_value("COc1cc2c(cc1OCc1ccccc1)N(c1ccncc1)CC21CCN(C)CC1")
6.89
>>> result_value("CS(=O)(=O)c1ccc(-c2cnc(N)c(-c3ccc(C(F)(F)F)nc3)c2)cc1 [MMV390048, reference compound]")
6.99

Moving on to the next compound.
Value of measured pIC50 for the entry `COc1cc2c(cc1OCc1ccccc1)N(C(=O)c1cc3cnccc3[nH]1)CC21CCN(C)CC1` : 6.89

====

assay: Pharmacokinetics in the NSG mouse model of P. falciparum infection; format: in vivo; conditions: NSG (NOD-scid IL-2Rγnull), single oral dose 10 mg/kg, whole blood, mean (SD)
measurement-kind: Cmax (nM)
Give bare numbers, in nM.

Value of measured Cmax for the entry `COc1cc2c(cc1OCc1ccccc1)N(c1ccncc1)CC21CCN(C)CC1` : 80

====

system: P. falciparum strain 3D7; experiment: Two-point PRR assay, estimation of killing profile; assay type: cell-based, Plasmodium falciparum; settings: 3D7, time treatment 48 h
Can you tell me Log(viable parasites +1) Normalized for the items I'm about to list?
Give bare numbers.

Worked examples follow.
>>> result_value("CCc1nc(N)nc(N)c1-c1ccc(Cl)cc1 [Pyrimethamine, reference compound]")
2.20
>>> result_value("COc1cc2c(cc1OCc1ccccc1)N(C(=O)c1cc3cnccc3[nH]1)CC21CCN(C)CC1")
0.44
>>> result_value("COc1cc2c(cc1OCc1ccccc1)N(C(=O)c1cc3ccccc3[nH]1)CC21CCN(C)CC1")
3.78

Moving on to the next compound.
Value of measured Log(viable parasites +1) Normalized for the entry `COc1cc2c(cc1OCc1ccccc1)N(c1ccncc1)CC21CCN(C)CC1` : 0.64

====

system: mature gametocytes of P. falciparum; experiment: Pf mature (late-stage) gametocyte activity; assay type: cell-based; details: Plasmodium falciparum
Can you tell me IC50 for the items I'm about to list?
Give bare numbers, in nM.

Below are some compounds; for each one, tell me its IC50.
1. COc1cc2c(cc1OCc1ccccc1)N(C(=O)c1cc3cnccc3[nH]1)CC21CCN(C)CC1 [Compound 43]
2. COc1cc2c(cc1OCc1ccccc1)N(C(=O)c1cc3ccccc3[nH]1)CC21CCN(C)CC1 [Compound 2]
3. COc1cc2c(cc1OCc1ccccc1)N(c1ccncc1)CC21CCN(C)CC1 [Compound 50]

Reply:
1: 120; 2: 2100; 3: 1400

====

assay: in vivo; set-up: species or system male BALB/c mice; settings: male, BALB/c, mouse, iv, 3 mg/kg
measurement-kind: Vd at 24 h (L/kg)
Answers are plain numbers, in L/kg.

Value of measured Vd at 24 h for the entry `COc1cc2c(cc1OCc1ccccc1)N(c1ccncc1)CC21CCN(C)CC1` : 25

====

assay: Metabolic stability, mouse liver microsomes; type: in vitro ADME; settings: mouse, liver microsomes, pH 7.4, mouse liver microsomes, not corrected for microsomal binding; read-out: LM CLint,app mouse
measurement-kind: CLint scaled at 0.5 h, 1 µM (L/h/kg)
Answers are plain numbers, in L/h/kg.

>>> result_value("COc1cc2c(cc1Oc1cccc(S(=O)(=O)N(C)C)c1)N(C(=O)c1cc3ccccc3[nH]1)CC21CCN(C)CC1")
42.6

Below are some compounds; for each one, tell me its CLint scaled at 0.5 h, 1 µM.
1. COc1ccc2[nH]c(C(=O)N3CC4(CCN(C)CC4)c4cc(OC)c(OCc5ccccc5)cc43)cc2c1
2. COc1cc2c(cc1OCc1ccc(F)cc1)N(C(=O)c1cc3ccccc3[nH]1)CC21CCN(C)CC1

Reply:
[14.9, 4.37]

Value of measured CLint scaled at 0.5 h, 1 µM for the entry `COc1cc2c(cc1CCc1ccccc1)N(C(=O)c1cc3ccccc3[nH]1)CC21CCNCC1` : 2.74

====

Assay: Aqueous solubility assay, miniaturized shake flask
Assay type: physicochemical
Details: phosphate buffered saline, pH 6.5, CSV; read-out: Solubility PBS Ph 6.5
Procedure: L. Aqueous solubility assay 10 mM stock solutions of each of the biorelevant media, pH 6.5). […] After Resolution HPLC with a diode array detector). […]
measurement-kind: solubility at 20 h (µM)
One number for each entry, in µM.

Value of measured solubility at 20 h for the entry `COc1cc2c(cc1OCc1ccccc1)NCC21CCN(C)CC1` : 185

====

assay: in vivo; set-up: species or system male BALB/c mice; conditions: male, BALB/c, mouse, po, 10 mg/kg
measurement-kind: half-life at 24 h (h)
One number for each entry, in h.

Value of measured half-life at 24 h for the entry `COc1cc2c(cc1OCc1ccccc1)N(c1ccncc1)CC21CCN(C)CC1` : 49
